Test system: CHO-K1 OATP1C1 cells
Settings: concentration that inhibits cell viability by 10%; CHO-K1 OATP1C1 cells, 30 min exposure
Consider the following molecules; for each one, report its Cytotoxicity IC10.

# Cytotoxicity IC10 measured on CHO-K1 OATP1C1 cells for item CC(C)(c1ccc(O)cc1)c1ccc(O)cc1 [Bisphenol A, Bisphenol-A] = 4.34 µM

# Cytotoxicity IC10 measured on CHO-K1 OATP1C1 cells for item CC(C)(c1cc(Br)c(O)c(Br)c1)c1cc(Br)c(O)c(Br)c1 [Tetrabromobisphenol A, Tetrabromobisphenol-A] = > 0.3 µM

# Cytotoxicity IC10 measured on CHO-K1 OATP1C1 cells for item Oc1ccc(Cc2ccc(O)cc2)cc1 [Bisphenol F, Bisphenol-F] = > 100 µM
